Origin of measurements: patent US8846710B2

Tested on: interferon (α) (IFN-α)
test name: Cytokine induction in human cells: IFN-α secreted by PBMC into culture media (ELISA)
Assay type: cell-based
conditions used: Table 10; maximal response in dose response curve; * = below experimental background level; median
Protocol: Cytokine Induction in Human Cells An in vitro human blood cell system is used to assess cytokine induction. […] Following incubation the plates are centrifuged for 10 minutes at 1000 rpm (approximately 200×g) at 4° C. […] The samples are analyzed for IFN-α by ELISA and for TNF-α by IGEN/BioVeris Assay. […] IFN-α concentration is determined with a human multi-subtype calorimetric sandwich ELISA (Catalog Number 41105) from PBL Biomedical Laboratories, Piscataway, N.J. Results are expressed in pg/mL. […]
endpoint: Maximal Response (pg/mL) IFN

Nc1nc2cc(-c3cccc(C(=O)N4CCOCC4)c3)ccc2c2c1nc(CO)n2CC1CCCCC1	1266 pg/mL
CCCc1nc2c(N)nc3cc(-c4cccnc4)ccc3c2n1CC1CCN(C(=O)C(C)C)CC1	1157 pg/mL
CCOCc1nc2c(N)nc3cc(-c4cccc(O)c4)ccc3c2n1CC(C)(C)O	740 pg/mL
CCOCc1nc2c(N)nc3cc(-c4ccccc4)ccc3c2n1CC(C)(C)O	440 pg/mL
CCCc1nc2c(N)nc3cc(-c4cccnc4)ccc3c2n1CCCCNC(=O)C1CCCC1	521 pg/mL
CCCC(=O)NCCCCn1c(CCC)nc2c(N)nc3cc(-c4cccnc4)ccc3c21	862 pg/mL

interferon (α) (IFN-α) / Maximal Response (pg/mL) IFN / Nc1nc2cc(-c3cccnc3)ccc2c2c1nc(CO)n2CCCCNC(=O)C1CCCC1 : value?
2745 pg/mL

Please provide the recorded Maximal Response (pg/mL) IFN for Nc1nc2cc(-c3ccncc3)ccc2c2c1nc(CCO)n2CCCN1CCCC1=O , tested on interferon (α) (IFN-α).
*

# query: Maximal Response (pg/mL) IFN | item CC(C)C(=O)N1CCC(Cn2c(CO)nc3c(N)nc4cc(-c5cccnc5)ccc4c32)CC1 | system: interferon (α) (IFN-α)
969 pg/mL

// fetch interferon (α) (IFN-α) Maximal Response (pg/mL) IFN for COCCc1nc2c(N)nc3cc(-c4cccnc4)ccc3c2n1CCCN1CCCC1=O
753 pg/mL

Find Maximal Response (pg/mL) IFN (interferon (α) (IFN-α)) for the entry CCOCc1nc2c(N)nc3cc(-c4cncc(CO)c4)ccc3c2n1CC1CCN(C(=O)C(C)C)CC1
1382 pg/mL

Can you look up Maximal Response (pg/mL) IFN on interferon (α) (IFN-α) for CCOCc1nc2c(N)nc3cc(-c4cccnc4)ccc3c2n1CC(C)C ?
591 pg/mL

Entry Nc1nc2cc(-c3cccnc3)ccc2c2c1nc(CO)n2CCCCNC(=O)NC1CCCC1 , system interferon (α) (IFN-α): what Maximal Response (pg/mL) IFN was measured?
4373 pg/mL

For the record CCOCc1nc2c(N)nc3cc(-c4cccc(C(=O)N5CCOCC5)c4)ccc3c2n1CC1CCCCC1 , what value of Maximal Response (pg/mL) IFN is listed for interferon (α) (IFN-α)?
815 pg/mL

// map COCCc1nc2c(N)nc3cc(-c4cncc(CO)c4)ccc3c2n1CC(C)(C)O to recorded Maximal Response (pg/mL) IFN (system: interferon (α) (IFN-α))
5868 pg/mL

Query Maximal Response (pg/mL) IFN on interferon (α) (IFN-α) for COCc1nc2c(N)nc3cc(-c4cncc(CO)c4)ccc3c2n1CC(C)(C)O
1771 pg/mL

Give recorded Maximal Response (pg/mL) IFN with interferon (α) (IFN-α) for the following compound: CCOCc1nc2c(N)nc3cc(-c4ccccc4)ccc3c2n1CCCN1CCCC1=O
1665 pg/mL
